assayed-system: full length SGK1 (Homo sapiens, UniProt O00141)
Construct: 125 μM full length SGK1 (Life Technologies Part #PR7358A); purchased Life Technologies PR7358A
Sequence (O00141 whole entry): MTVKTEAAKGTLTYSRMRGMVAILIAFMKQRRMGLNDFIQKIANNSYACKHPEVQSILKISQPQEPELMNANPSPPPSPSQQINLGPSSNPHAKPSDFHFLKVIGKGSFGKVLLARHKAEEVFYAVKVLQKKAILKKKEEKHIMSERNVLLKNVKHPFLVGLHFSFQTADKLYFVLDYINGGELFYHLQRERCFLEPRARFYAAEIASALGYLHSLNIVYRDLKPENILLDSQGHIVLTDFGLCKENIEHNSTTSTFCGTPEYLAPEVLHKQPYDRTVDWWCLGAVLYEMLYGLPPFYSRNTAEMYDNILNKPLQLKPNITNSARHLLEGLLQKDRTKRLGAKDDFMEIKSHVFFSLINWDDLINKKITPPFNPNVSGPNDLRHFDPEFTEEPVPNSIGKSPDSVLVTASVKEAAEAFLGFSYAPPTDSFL
assay-explanation: SGK1 inhibition Assay A (Caliper LabChip electrophoretic separation of fluorescent peptide substrate and phosphorylated product)
Assay type: biochemical
assay-conditions: Assay A; 20 μM ATP, 40 min incubation; read-out: SGK1 IC50
Counter-ions that a name gives are not always drawn.
We label by threshold. Values of IC50 strictly beneath 10 nM are Yes. Values of 10 nM and up are No.

# molecule, discrete-label
rows = [
    ("N#Cc1cc(-c2cc(N3CCC[C@@H](NC(=O)c4sc(C(F)F)cc4OC4COC4)C3)c3c(N)ncnn23)ccn1", "Yes"),
    ("COC(=O)N1CC=C(c2cc(N3CCCC(NC(=O)c4sc(Cl)cc4OC4CCNC(C)(C)C4)C3)c3c(N)ncnn23)C1 (single isomer, unassigned) [Example 629]", "Yes"),
    ("CC(=O)N1CC=C(c2cc(N3CCC[C@@H](NC(=O)c4cccnc4)C3)c3c(N)ncnn23)C1", "No"),
    ("N#Cc1ccc(-c2cc(N3CCC[C@@H](NC(=O)c4sc(Cl)cc4OC4CC5(CNC5)C4)C3)c3c(N)ncnn23)cn1", "Yes"),
    ("CC(=O)N1CCC(Oc2cc(C(F)F)sc2C(=O)N[C@@H]2CCCN(c3cc(-c4cncnc4)n4ncnc(N)c34)C2)CC1", "No"),
    ("CC(=O)N1CC=C(c2cc(N3CCC[C@@H](NC(=O)c4sc(Cl)cc4OC4CCN(C)CC4)C3)c3c(N)ncnn23)C1", "Yes"),
    ("Nc1ncnn2c(-c3ccc4cnoc4c3)cc(N3CCC[C@@H](NC(=O)c4ccc(Cl)s4)C3)c12", "Yes"),
    ("Nc1ncnn2c(-c3ccnc(C(F)F)c3)cc(N3CCC[C@@H](NC(=O)c4sc(C(F)F)cc4OCCN4CCOCC4)C3)c12", "No"),
    ("COC(=O)N1CC=C(c2cc(N3CCC[C@@H](NC(=O)c4ccc(Cl)s4)C3)c3c(N)ncnn23)C1 [Example 138, TFA]", "Yes"),
    ("CC(=O)N1CC=C(c2cc(N3CCC[C@@H](NC(=O)c4cnccn4)C3)c3c(N)ncnn23)C1", "No"),
    ("CC(=O)N1CC=C(c2cc(N3CCC[C@@H](NC(=O)c4sc(Cl)cc4OC4CCN(C)CC4F)C3)c3c(N)ncnn23)C1 (single isomer, unassigned) [Example 600]", "Yes"),
    ("Nc1ncnn2c(C3=CCN(C(=O)C4CCS(=O)(=O)C4)C3)cc(N3CCC[C@@H](NC(=O)c4ccc(Cl)s4)C3)c12 (some centres unmarked)", "No"),
    ("CN(C)CCOc1cc(C(F)F)sc1C(=O)N[C@@H]1CCCN(c2cc(-c3ccc(C(N)=O)c(F)c3)n3ncnc(N)c23)C1", "Yes"),
]

* * *

assayed-system: full length SGK1 (Homo sapiens, UniProt O00141)
Construct: 125 μM full length SGK1 (Life Technologies Part #PR7358A); purchased Life Technologies PR7358A
assay-explanation: SGK1 inhibition Assay A (Caliper LabChip electrophoretic separation of fluorescent peptide substrate and phosphorylated product)
Type: biochemical
assay-conditions: Assay A; 20 μM ATP, 40 min incubation; read-out: SGK1 IC50
pIC50: −log10 of the molar value. Counter-ions that a name gives are not always drawn.
Kindly return Y if reported pIC50 is no lower than 8; return N if it is lower.

# molecule, discrete-label
rows = [
    ("CC(=O)NCC(=O)N1CC=C(c2cc(N3CCC[C@@H](NC(=O)c4ccc(Cl)s4)C3)c3c(N)ncnn23)C1 [Example 914]", "Y"),
    ("CN(C)CCOc1cc(C(F)F)sc1C(=O)N[C@@H]1CCCN(c2cc(-c3ccnc(N)c3)n3ncnc(N)c23)C1 [Example 304]", "Y"),
    ("CN1CCC(c2cc(C(F)F)sc2C(=O)N[C@@H]2CCCN(c3cc(-c4ccc(C#N)nc4)n4ncnc(N)c34)C2)CC1 [Example 396]", "N"),
    ("COc1cc(C(=O)N[C@@H]2CCCN(c3cc(C4=CCN(C(C)=O)C4)n4ncnc(N)c34)C2)sn1 [Example 256]", "Y"),
    ("Cc1nnc2ccc(-c3cc(N4CCC[C@@H](NC(=O)c5ccc(Cl)s5)C4)c4c(N)ncnn34)cn12 [Example 254]", "N"),
    ("COc1cc(C(=O)N[C@@H]2CCCN(c3cc(-c4ccncc4)n4ncnc(N)c34)C2)ccn1 [Example 127]", "Y"),
    ("COc1cc(C#N)ccc1C(=O)N[C@@H]1CCCN(c2cc(C3=CCN(C(C)=O)C3)n3ncnc(N)c23)C1 [Example 496]", "N"),
    ("CC(=O)N1CC=C(c2cc(N3CCC[C@@H](NC(=O)c4sc(Cl)cc4OC4CN(CC(F)F)C4)C3)c3c(N)ncnn23)C1 [Example 384]", "N"),
    ("COC(=O)N1CC=C(c2cc(N3CCC[C@@H](NC(=O)c4sc(Cl)cc4OC4CCNC4)C3)c3c(N)ncnn23)C1 (some centres unmarked) [Example 569]", "Y"),
    ("COCCOc1cc(Cl)sc1C(=O)N[C@@H]1CCCN(c2cc(-c3ccnc(F)c3)n3ncnc(N)c23)C1 [Example 147]", "Y"),
    ("CC(=O)N1CC=C(c2cc(N3CCC[C@@H](NC(=O)c4sc(Cl)cc4OCCN(C)C)C3)c3c(N)ncnn23)CC1 [Example 180, TFA]", "N"),
    ("CC(=O)N1CC=C(c2cc(N3CCC[C@@H](NC(=O)c4csnn4)C3)c3c(N)ncnn23)C1 [Example 449]", "N"),
    ("CCN(CC)CCOc1cc(C(F)F)sc1C(=O)N[C@@H]1CCCN(c2cc(C3=CCN(C(C)=O)C3)n3ncnc(N)c23)C1 [Example 409]", "N"),
    ("Nc1ncnn2c(-c3ccc(-n4cnnn4)cc3)cc(N3CCC[C@@H](NC(=O)c4ccc(Cl)s4)C3)c12 [Example 249, TFA]", "Y"),
]

Provenance of the data: patent US20260250290A1
